# TARGET UNDER TEST: Muscarinic acetylcholine receptor
# ASSAY: In vitro binding affinity for muscarinic receptor by displacing [3H]quinuclidinyl benzilate binding on rat brain stem homogenate.
# Format: tissue-based

# COMPOUND, UNITS SYMBOL, Ki
records = [
    ("CCCn1nnc(C2=CCCN(C)C2)n1", "nM", 180),
    ("C=CCn1ncc(C2CCCNC2)n1 (racemic)", "nM", 300),
    ("CCCCCn1nnc(C2=CCCN(C)C2)n1", "nM", 110),
    ("CCCCn1nnc(C2=CCCN(C)C2)n1", "nM", 220),
    ("C#CCn1ncc(C2CCCNC2)n1 (racemic)", "nM", 130),
    ("C=Cn1nnc(C2=CCCN(C)C2)n1", "nM", 90),
    ("CCn1ncc(C2=CCCNC2)n1", "nM", 170),
    ("C=CCn1ncc(C2CCCNC2)n1 (stereo in doubt; (-)-15b)", "nM", 310),
    ("CCCCn1ncc(C2=CCCN(C)C2)n1", "nM", 37),
    ("CC(C)n1nnc(C2=CCCN(C)C2)n1", "nM", 270),
    ("CN1CCC=C(c2cnn(C)n2)C1", "nM", 160),
    ("C=CCn1ncc(C2CCCNC2)n1 (single isomer, unassigned; (+))", "nM", 330),
    ("C#CCn1ncc(C2CCCNC2)n1 (single isomer, unassigned; (+))", "nM", 30),
]
